ASSAY SYSTEM: Abl(T315I) (Homo sapiens, UniProt P00519, T315I)
Construct: purchased BPS Biosciences (named as the lab that ran the assay)
EXPERIMENTAL PROTOCOL: Abl(T315I) kinase activity assay, Kinase-Glo Plus luminescence (BPS Biosciences)
Format: biochemical
EXPERIMENTAL PARAMETERS: 10 μM ATP, read-out: IC-50 of Compound 55
Experimental: Assay was conducted by BPS Biosciences, 6405 Mira Mesa Blvd. Suite 100. San Diego, Calif. 92121. United States • The assay was performed using Kinase-Glo Plus luminescence kinase assay kit (Promega). It measures kinase activity by quantitating the amount of ATP remaining in solution following a kinase reaction. […] After the enzymatic reaction, 50 μl of Kinase-Glo Plus Luminescence kinase assay solution (Promega) was added to each reaction and incubated on the plate for 15 minutes, at room temperature. […]
pIC50: −log10 of the molar value.
PARAMETER: pIC50

So, Cc1ccc(C(=O)Nc2ccc(CN3CCN(C)CC3)c(C(F)(F)F)c2)cc1C12CC(c3cnc4cccnn34)(C1)C2 ? Its pIC50 was > 6.30

----------
PARAMETER: IC50

Value sought: IC50, system ABL (WT) (Homo sapiens), item Cc1ccc(C(=O)Nc2ccc(CN3CCN(C)CC3)c(C(F)(F)F)c2)cc1C12CC(c3cnc4cccnn34)(C1)C2 . Result: < 500 nM
